- Test system: PPARg:RXRa IVT, anti-PPARg (NR concentration 270 nM, RXRa partner concentration 90 nM)
- Procedure text: PBM binding z-score (relative to random genomic background probes); higher = stronger binding; sequences stand for … in GC…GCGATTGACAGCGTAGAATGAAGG

[
  {
    "Entry sequence": "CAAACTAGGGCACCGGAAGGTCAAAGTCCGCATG",
    "PBM binding z-score": 7.55
  },
  {
    "Entry sequence": "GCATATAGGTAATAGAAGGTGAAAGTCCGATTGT",
    "PBM binding z-score": 3.21
  },
  {
    "Entry sequence": "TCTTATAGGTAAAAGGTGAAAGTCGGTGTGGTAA",
    "PBM binding z-score": 5.26
  },
  {
    "Entry sequence": "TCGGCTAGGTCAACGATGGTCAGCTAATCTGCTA",
    "PBM binding z-score": 3.06
  },
  {
    "Entry sequence": "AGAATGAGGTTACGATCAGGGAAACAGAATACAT",
    "PBM binding z-score": 3.6
  },
  {
    "Entry sequence": "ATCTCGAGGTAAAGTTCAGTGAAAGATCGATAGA",
    "PBM binding z-score": 1.24
  },
  {
    "Entry sequence": "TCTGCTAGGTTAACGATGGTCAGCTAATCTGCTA",
    "PBM binding z-score": 1.89
  },
  {
    "Entry sequence": "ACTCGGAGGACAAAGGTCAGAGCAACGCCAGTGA",
    "PBM binding z-score": 3.67
  },
  {
    "Entry sequence": "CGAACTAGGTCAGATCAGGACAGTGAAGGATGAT",
    "PBM binding z-score": 7.23
  },
  {
    "Entry sequence": "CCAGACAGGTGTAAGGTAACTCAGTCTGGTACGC",
    "PBM binding z-score": -0.31
  },
  {
    "Entry sequence": "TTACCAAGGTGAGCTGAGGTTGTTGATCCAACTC",
    "PBM binding z-score": 1.51
  },
  {
    "Entry sequence": "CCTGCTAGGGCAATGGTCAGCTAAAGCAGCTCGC",
    "PBM binding z-score": 1.76
  },
  {
    "Entry sequence": "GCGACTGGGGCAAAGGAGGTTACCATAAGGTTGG",
    "PBM binding z-score": 3.76
  },
  {
    "Entry sequence": "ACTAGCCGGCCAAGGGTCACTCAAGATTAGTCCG",
    "PBM binding z-score": 2.25
  },
  {
    "Entry sequence": "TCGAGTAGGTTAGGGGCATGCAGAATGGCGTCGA",
    "PBM binding z-score": 1.32
  },
  {
    "Entry sequence": "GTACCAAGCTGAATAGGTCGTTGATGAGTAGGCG",
    "PBM binding z-score": -0.114
  },
  {
    "Entry sequence": "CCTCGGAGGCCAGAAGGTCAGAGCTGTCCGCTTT",
    "PBM binding z-score": -0.274
  },
  {
    "Entry sequence": "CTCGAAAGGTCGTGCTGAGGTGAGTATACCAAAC",
    "PBM binding z-score": 1.96
  }
]
